Give measured A375 (% LDH release) for each item. Keep answers brief.
# Tested on: A375 melanoma cells
# Test details: LDH release membrane integrity assay, A375
# Type: cell-based, human
# Condition parameters: compounds at their IC50 concentrations, 24 h; combinations 1:1; relative to maximum release
Numbers only, in %.

{"Compound": "CN([N-]C(=O)CC(=O)[N-]N(C)C(=[SH+])c1ccccc1)C(=[SH+])c1ccccc1.[Cu]", "Recorded endpoint": "A375 (% LDH release)", "Measurement": 21}

Respectfully, I request A375 (% LDH release) for each entry included below.
1. O=C(O)c1cc(/N=N/c2ccc(S(=O)(=O)Nc3ccccn3)cc2)ccc1O
2. C[C@H]1[C@H](N2CCS(=O)(=O)CC2)O[C@@H]2O[C@@]3(C)CC[C@H]4[C@H](C)CC[C@@H]1[C@@]24OO3
3. CC(C)=CCC/C(C)=C/CN1CCN([C@@H]2O[C@@H]3O[C@@]4(C)CC[C@H]5[C@H](C)CC[C@@H]([C@H]2C)[C@@]35OO4)CC1
4. C[C@@H]1CC[C@H]2[C@@H](C)C(=O)O[C@@H]3O[C@@]4(C)CC[C@@H]1[C@]32OO4
5. CC(C)=CCC/C(C)=C/CC/C(C)=C/CN1CCN([C@@H]2O[C@@H]3O[C@@]4(C)CC[C@H]5[C@H](C)CC[C@@H]([C@H]2C)[C@@]35OO4)CC1

1. 21
2. 27
3. 68
4. 24
5. 57

Form entry - test system: A375 melanoma cells; read-out: A375 (% LDH release); compound: COc1cc([C@@H]2c3cc4c(cc3[C@@H](O[C@@H]3O[C@@H]5CO[C@@H](C)O[C@H]5[C@H](O)[C@H]3O)[C@H]3COC(=O)[C@H]23)OCO4)cc(OC)c1O [Etoposide 9, etoposide]
11

* * *

# Test system: MCF-7 breast cancer cells
# Test details: Sulforhodamine B (SRB) growth inhibition assay, MCF7
# Format: cell-based
# Condition parameters: Homo sapiens, mean ± SD
Give measured pIC50 for each item. Keep answers brief.
Answers are plain numbers, as −log10 of the molar value.

{"Chemical smiles": "CC(C)=CCC/C(C)=C/CC/C(C)=C/CN1CCN([C@@H]2O[C@@H]3O[C@@]4(C)CC[C@H]5[C@H](C)CC[C@@H]([C@H]2C)[C@@]35OO4)CC1", "pIC50": 5.81}

Lab note: next molecule to report on.
Recorded pIC50 of C[C@H]1[C@H](N2CCS(=O)(=O)CC2)O[C@@H]2O[C@@]3(C)CC[C@H]4[C@H](C)CC[C@@H]1[C@@]24OO3 , please.
5.56

* * *

# Test system: HEK293 cells
# Test details: MTT cytotoxicity assay, HEK293
# Assay type: cell-based
# Condition parameters: Homo sapiens, 24 h exposure, mean ± SD, three biological replicates
# Excerpt: The human cell lines TK10 (human kidney adenocarcinoma), UACC62 (human melanoma) and MCF7 (human breast adenocarcinoma) were obtained from the National Cancer Institute (NCI) as part of a panel widely studied for drug screening and molecular target identification. Melanoma (A375) and human embryonic kidney (HEK293) were acquired from the American Type Culture Collection; ATCC® CRL-1619™ and ATCC® CRL-1573™ respectively. […]
Recorded endpoint: IC50
# include the unit after the value

{"Compound": "C[C@H]1[C@H](N2CCS(=O)(=O)CC2)O[C@@H]2O[C@@]3(C)CC[C@H]4[C@H](C)CC[C@@H]1[C@@]24OO3 [Artemisone 4, artemisone]", "IC50": "86.7 µM"}
{"Compound": "CC(C)=CCC/C(C)=C/CN1CCN([C@@H]2O[C@@H]3O[C@@]4(C)CC[C@H]5[C@H](C)CC[C@@H]([C@H]2C)[C@@]35OO4)CC1 [Geranylpiperazine-DHA 6, geranylpiperazine-DHA]", "IC50": "24.3 µM"}
{"Compound": "CC(C)=CCC/C(C)=C/CC/C(C)=C/CN1CCN([C@@H]2O[C@@H]3O[C@@]4(C)CC[C@H]5[C@H](C)CC[C@@H]([C@H]2C)[C@@]35OO4)CC1 [Farnesylpiperazine-DHA 7, farnesylpiperazine-DHA]", "IC50": "35.5 µM"}

Form entry - test system: HEK293 cells; read-out: IC50; compound: C[C@@H]1CC[C@H]2[C@@H](C)C(=O)O[C@@H]3O[C@@]4(C)CC[C@@H]1[C@]32OO4 [Artemisinin 2, artemisinin]
121 µM

* * *

Give measured Therapeutic index (TI) for each item. Keep answers brief.
# Tested on: A375 melanoma cells
# Test details: MTT cell viability assay, A375
# Assay type: cell-based, human
# Condition parameters: IC50 of HaCat cells/IC50 of A375 cells
# From the text: The human cell lines TK10 (human kidney adenocarcinoma), UACC62 (human melanoma) and MCF7 (human breast adenocarcinoma) were obtained from the National Cancer Institute (NCI) as part of a panel widely studied for drug screening and molecular target identification. […] Next, the quantitative colorimetric MTT assay was used to determine in vitro cell viability with A375 (melanoma) and HaCat (nonmalignant keratinocyte) cells. […]
Give bare numbers.

Solved cases below.
{"Compound": "CC(C)=CCC/C(C)=C/CC/C(C)=C/CN1CCN([C@@H]2O[C@@H]3O[C@@]4(C)CC[C@H]5[C@H](C)CC[C@@H]([C@H]2C)[C@@]35OO4)CC1 [Farnesylpiperazine-DHA 7, farnesylpiperazine-DHA]", "Therapeutic index (TI)": 2.1}
{"Compound": "C[C@H]1[C@H](N2CCS(=O)(=O)CC2)O[C@@H]2O[C@@]3(C)CC[C@H]4[C@H](C)CC[C@@H]1[C@@]24OO3 [Artemisone 4, artemisone]", "Therapeutic index (TI)": 2.8}
{"Compound": "CC(C)=CCC/C(C)=C/CN1CCN([C@@H]2O[C@@H]3O[C@@]4(C)CC[C@H]5[C@H](C)CC[C@@H]([C@H]2C)[C@@]35OO4)CC1 [Geranylpiperazine-DHA 6, geranylpiperazine-DHA]", "Therapeutic index (TI)": 2.2}
{"Compound": "CN([N-]C(=O)CC(=O)[N-]N(C)C(=[SH+])c1ccccc1)C(=[SH+])c1ccccc1.[Cu] [Elesclomol-Cu(II) 1-Cu, elesclomol-Cu(II)]", "Therapeutic index (TI)": 2.8}

Lab note: next compound to report on.
Recorded Therapeutic index (TI) of C[C@@H]1CC[C@H]2[C@@H](C)C(=O)O[C@@H]3O[C@@]4(C)CC[C@@H]1[C@]32OO4 [Artemisinin 2, artemisinin] , please.
2.5

* * *

Give measured HaCat (% LDH release) for each item. Keep answers brief.
# Test system: HaCat normal keratinocytes
# Test details: LDH release membrane integrity assay, HaCat
# Condition parameters: compounds at their IC50 concentrations, 24 h; combinations 1:1; relative to maximum release
Give bare numbers, in %.

Solved cases below.
{"Molecule": "CN([N-]C(=O)CC(=O)[N-]N(C)C(=[SH+])c1ccccc1)C(=[SH+])c1ccccc1.[Cu] [Elesclomol-Cu(II) 1-Cu, elesclomol-Cu(II)]", "HaCat (% LDH release) (%)": 16}
{"Molecule": "C[C@H]1[C@H](N2CCS(=O)(=O)CC2)O[C@@H]2O[C@@]3(C)CC[C@H]4[C@H](C)CC[C@@H]1[C@@]24OO3 [Artemisone 4, artemisone]", "HaCat (% LDH release) (%)": 19}

Respectfully, I request HaCat (% LDH release) for each entry included below.
1. COc1cc([C@@H]2c3cc4c(cc3[C@@H](O[C@@H]3O[C@@H]5CO[C@@H](C)O[C@H]5[C@H](O)[C@H]3O)[C@H]3COC(=O)[C@H]23)OCO4)cc(OC)c1O [Etoposide 9, etoposide]
2. C[C@@H]1CC[C@H]2[C@@H](C)C(=O)O[C@@H]3O[C@@]4(C)CC[C@@H]1[C@]32OO4 [Artemisinin 2, artemisinin]
3. CC(C)=CCC/C(C)=C/CN1CCN([C@@H]2O[C@@H]3O[C@@]4(C)CC[C@H]5[C@H](C)CC[C@@H]([C@H]2C)[C@@]35OO4)CC1 [Geranylpiperazine-DHA 6, geranylpiperazine-DHA]
4. O=C(O)c1cc(/N=N/c2ccc(S(=O)(=O)Nc3ccccn3)cc2)ccc1O [Sulfasalazine 8, sulfasalazine]
5. CC(C)=CCC/C(C)=C/CC/C(C)=C/CN1CCN([C@@H]2O[C@@H]3O[C@@]4(C)CC[C@H]5[C@H](C)CC[C@@H]([C@H]2C)[C@@]35OO4)CC1 [Farnesylpiperazine-DHA 7, farnesylpiperazine-DHA]

7
18
17
35
18
